Data provenance is patent US6867207B2.

Test system: IL-5 production
ASSAY_SUMMARY: In vitro inhibition of IL-5 production in human blood (phytohemagglutinin-stimulated whole blood, ELISA);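 also: values marked with an asterisk were tested at 10 µM and unmarked values at 1 µM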
Type: cell-based
CONDITION_SUMMARY: test dose 1×10^−6 M, 48 hours
Label fulfilled for high-side % inh. (percentage inhibition of IL-5 production) (at or above 80%) and not fulfilled for low-side % inh. (percentage inhibition of IL-5 production) (below it).

Below, 4 compounds whose answers are already recorded.
{"COMPOUND": "Cc1sc(C(c2ccc(Cl)cc2)c2c(Cl)cc(-n3ncc(=O)[nH]c3=O)cc2Cl)nc1-c1cccc(F)c1 (racemic) [Comp 287]", "GROUP": "fulfilled"}
{"COMPOUND": "Cc1sc(C(c2ccc(Cl)cc2)c2c(Br)cc(-n3ncc(=O)[nH]c3=O)cc2Br)nc1-c1ccccc1 (racemic)", "GROUP": "fulfilled"}
{"COMPOUND": "O=c1cnn(-c2ccc(C(Sc3nc[nH]n3)c3ccc(Cl)cc3)c(Cl)c2)c(=O)[nH]1 (racemic)", "GROUP": "not fulfilled"}
{"COMPOUND": "O=c1cnn(-c2cc(Cl)c(C(c3ccc(Cl)cc3)c3ccccn3)c(Cl)c2)c(=O)[nH]1 (stereo not drawn)", "GROUP": "not fulfilled"}

Okay, next one:
Qu. Is reported % inh. (percentage inhibition of IL-5 production) greater than or equal to 80% here: CCOC(=O)N1CCN(c2ccnc(SC(c3ccc(Cl)cc3)c3c(Cl)cc(-n4ncc(=O)[nH]c4=O)cc3Cl)n2)CC1 (racemic)
Ans. fulfilled
